Task for the reader: assign each of the following variants its reported protein stability index.
B1: ZNF649 (parent)
chain: DECEKAYFYMSCLVKHKRIHSREK

Variants of: B1
Experiment: protein stability index of a GFP-peptide fusion (GPS, HEK-293T) (PSI 1-6); higher = more stable;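 further: lentivirally expressed fusions sorted by FACS into six bins by GFP to DsRed ratio, PSI derived from sequencing read proportions per bin multiplied by bin number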
Settings: c terminus: a fixed tail appended
Just the number, please, no unit after it.

Find the measured protein stability index of DECEKAYFYMSCLVKHKRIDSREK [H20D] and report it.
3.33

Supply recorded protein stability index for DECEKCYFYMSCLVKHKRIHSREK [A6C] here.
2.08

Identify protein stability index associated with the variant DECEKVYFYMSCLVKHKRIHSREK [A6V]
1.96

Please report protein stability index for the following variant: DECEKAYTYMSCLVKHKRIHSREK [F8T]
3.52

// fetch protein stability index given entry DECEKAYFYMSCLVAHKRIHSREK [K15A]
2.56

Give protein stability index for DECEKAYFYMSCDVKHKRIHSREK [L13D]
4.25

Look up and report measured protein stability index for this entry: QECEKAYFYMSCLVKHKRIHSREK [D1Q]
2.44

Item DECEKAYFYMSCLVKLKRIHSREK [H16L] : provide protein stability index
1.84

Look up and report measured protein stability index for this entry: DECEKAYFYMSCLVKHKRIHSRDK [E23D]
2.81

Supply protein stability index value. Item: DECEKAYFYMSCLVKHNRIHSREK [K17N]
2.45

Read the entry DECEKAYFYMSCLVKHKRIHDREK [S21D] and write its reported protein stability index.
2.61

Return protein stability index (reported value) for this variant: DECEKAYFYMSCLVKHKRICSREK [H20C]
2.92

Determine its reported protein stability index: DECEKAYFYMSCLVKHKSIHSREK [R18S]
2.56

For DEPEKAYFYMSCLVKHKRIHSREK [C3P] , write its protein stability index.
2.77

Kindly indicate its recorded protein stability index. Item: DECEKAYFYMSCLVKHKRIESREK [H20E]
3.6

Return reported protein stability index. Input variant: DECEKAYFYMICLVKHKRIHSREK [S11I]
1.76

Name the recorded protein stability index of the item DECEGAYFYMSCLVKHKRIHSREK [K5G] in your answer.
3.13

Indicate the recorded protein stability index value for this variant: DECEKAYFYMSRLVKHKRIHSREK [C12R]
2.96

Recall and state the measured protein stability index for DECEKAYFYISCLVKHKRIHSREK [M10I] .
1.86

Give the reported protein stability index for this variant. DECEKFYFYMSCLVKHKRIHSREK [A6F]
1.64

In one line, give reported protein stability index of the entry DECEKAYFYMSCLVKHKRIHSREP [K24P] .
2.46

Using the record for DECEKAYFYMSCLHKHKRIHSREK [V14H] , state its measured protein stability index.
3.86

Please list protein stability index recorded for the variant DECEKAYFYMSCLVKHQRIHSREK [K17Q]
2.3

Determine from records and report protein stability index for DECRKAYFYMSCLVKHKRIHSREK [E4R]
2.33

Report measured protein stability index; entry is DECEKNYFYMSCLVKHKRIHSREK [A6N]
2.65

Return reported protein stability index. Input variant: DECEKAYFYMSCLVKHRRIHSREK [K17R]
2.39

The reported measurements were obtained from the supplement of paper PMC10567573.
